B1: Dystrobrevin alpha, residues 235 to 294; numbered along this chain, Q9Y4J8 (parent)
chain: ENVFHPVECSYCHSESMMGFRYRCQQCHNYQLCQDCFWRGHAGGSHSNQHQMKEYTSWKS

# Variants of: B1
# PROTOCOL TEXT: abundance fitness (aPCA) (normalised: wild type 0, dead -1); higher = more abundant; growth selection in yeast, the domain comes from the species named
# CONDITION SET: Homo sapiens
Each record here notes measured abundance fitness.

| SEQUENCE CHAIN | abundance fitness |
| --- | --- |
| ENVFHPVECSYCHSESMMGFRYRCQQCHNYQLCQDYFWRGHAGGSHSNQHQMKEYTSWKS [C36Y] | -0.734 |
| ENVFHDVECSYCHSESMMGFRYRCQQCHNYQLCQDCFWRGHAGGSHSNQHQMKEYTSWKS [P6D] | 0.079 |
| ENVFHPVECSYCHSESMMGFRYRCQQCHNYQLCQDCFWRGHAGGSHSNQHQMKEYTIWKS [S57I] | -0.11 |
| ENVFHPVECSYCHSESMHGFRYRCQQCHNYQLCQDCFWRGHAGGSHSNQHQMKEYTSWKS [M18H] | 0.163 |
| ENVFHPVECSYCHSESMMGFRYRCQQCHNYQLCQDCFWRGHAGGSHSNQHQMKEYMSWKS [T56M] | -0.151 |
| ENVFHPVECSYCHSESMMGFRYRCQQCHNYQLCQDCFWRGHAGGSHSNQHQMTEYTSWKS [K53T] | -0.154 |
| ENVFHPVECSYCHSESMIGFRYRCQQCHNYQLCQDCFWRGHAGGSHSNQHQMKEYTSWKS [M18I] | -0.021 |
| ENVFHPVECSYCHSESMMGFRYRCQQCHNYQLCQDCFWRGHAGGSHSNQHQMKEYRSWKS [T56R] | -0.061 |
| ENVFHPVECSYCHSESMMGFRYRCQPCHNYQLCQDCFWRGHAGGSHSNQHQMKEYTSWKS [Q26P] | -0.545 |
| ENVFHPVECSYCHSEAMMGFRYRCQQCHNYQLCQDCFWRGHAGGSHSNQHQMKEYTSWKS [S16A] | -0.049 |
| ENVFHPVECSYCHSESMFGFRYRCQQCHNYQLCQDCFWRGHAGGSHSNQHQMKEYTSWKS [M18F] | 0.126 |
| ENVFHPVECSYCHSESMMGFRYRCQQCHNYQLCQDCFWRGHASGSHSNQHQMKEYTSWKS [G43S] | 0.09 |
| ENVFHPVECSYCHSESMMGTRYRCQQCHNYQLCQDCFWRGHAGGSHSNQHQMKEYTSWKS [F20T] | 0.15 |
| ENVFHPVECSYCHSESMMGFRYRCQQCHNYQLEQDCFWRGHAGGSHSNQHQMKEYTSWKS [C33E] | -0.541 |
| ANVFHPVECSYCHSESMMGFRYRCQQCHNYQLCQDCFWRGHAGGSHSNQHQMKEYTSWKS [E1A] | -0.257 |
| ENVFHPVECSYCSSESMMGFRYRCQQCHNYQLCQDCFWRGHAGGSHSNQHQMKEYTSWKS [H13S] | -0.096 |
| ENVFHPVECSYCHSESMMGFRYRCQQCHNYQLCQDCFWRGHAGGSGSNQHQMKEYTSWKS [H46G] | -0.165 |
| ENVFHPVECSYCHSESMPGFRYRCQQCHNYQLCQDCFWRGHAGGSHSNQHQMKEYTSWKS [M18P] | 0.116 |
| ENVFHPVECSYCHSESMMGFRYRCQQCHNEQLCQDCFWRGHAGGSHSNQHQMKEYTSWKS [Y30E] | -0.378 |
| ENVFHPVECSYCHSESMMGFRYRCQQMHNYQLCQDCFWRGHAGGSHSNQHQMKEYTSWKS [C27M] | -0.814 |
| ENVFFPVECSYCHSESMMGFRYRCQQCHNYQLCQDCFWRGHAGGSHSNQHQMKEYTSWKS [H5F] | -0.201 |
| ENVFHPVECSYCHSESMMGFRYRCQQCDNYQLCQDCFWRGHAGGSHSNQHQMKEYTSWKS [H28D] | 0.209 |
| ENVFHPVECSYCHSESMMKFRYRCQQCHNYQLCQDCFWRGHAGGSHSNQHQMKEYTSWKS [G19K] | 0.129 |
| ENVFHPVECSYCHSESMNGFRYRCQQCHNYQLCQDCFWRGHAGGSHSNQHQMKEYTSWKS [M18N] | 0.101 |
| ENVFHPVECSYCHSESMMGFRYRCQQCHNYQLCQDCFWRGHAGGSHSNQHQMKEYTYWKS [S57Y] | -0.395 |
| ENVFHPVECSYCHSESMMGFHYRCQQCHNYQLCQDCFWRGHAGGSHSNQHQMKEYTSWKS [R21H] | 0.165 |
| ENVFHPVECSYCHSESMMGFRYRCQQCHNYQLCQDCFWRGHAGGSHSNQHQNKEYTSWKS [M52N] | -0.764 |
| ENVFHPVECSYCHSESMMGFRYRCQQCHNYQLCQDCFWRGHAGGSHSNQHQMKEITSWKS [Y55I] | -0.066 |
| ENVFHPVECSYCHSESMMGFRYRCQQCHNYQLCQDCFWRGHAGGSHRNQHQMKEYTSWKS [S47R] | -0.118 |
| ENVFHPVECSYCHSESMMGFRYRCQQCHNYQLCQDCFWRGHAGGSHSNQYQMKEYTSWKS [H50Y] | -0.527 |
| ENVFHPVECSYCHSESMMGFRYRCQQCHNYQLCQDCFWRGHRGGSHSNQHQMKEYTSWKS [A42R] | -0.032 |
| ENVFHPVECSYCHSESMMGFRYRCQQCHNYQLCQDCFWRGHAGGSHSNQHQMKERTSWKS [Y55R] | -0.11 |
| ENVFHPVECSYFHSESMMGFRYRCQQCHNYQLCQDCFWRGHAGGSHSNQHQMKEYTSWKS [C12F] | -1.23 |
| ENVFHPVECSYCHSESMMGFRWRCQQCHNYQLCQDCFWRGHAGGSHSNQHQMKEYTSWKS [Y22W] | -0.086 |
